Recorded measurements of Activity, one per entry
assay: Antioxidant activity assessed as DPPH radical scavenging activity at 100 uM incubated for 30 mins in dark by absorbance based analysis relative to control; format: functional
Reply with just the number (in %).

Consider the following illustrative entries.
# molecule, readout_units, Activity
records = [
    ("COc1cc(/C=C2/C(=O)N(c3ccc(F)cc3)C(C(=O)NC3CCCCC3)c3ccccc32)ccc1O (stereo not drawn)", "%", 67.3),
    ("COc1cc(/C=C2/C(=O)N(c3ccc(C(C)C)cc3)C(C(=O)NC3CCCCC3)c3ccccc32)ccc1O (stereo not drawn)", "%", 68),
]

If you can, please state the reported Activity value of COc1cc(/C=C2/C(=O)N(c3ccc(C(C)C)cc3)C(C(=O)NC(C)(C)C)c3ccccc32)ccc1O (stereo not drawn) .
67.3

Another: COc1cc(/C=C2/C(=O)N(c3ccccc3)C(C(=O)NC3CCCCC3)c3ccccc32)cc(OC)c1O (stereo not drawn)
40.6

Another: CC(C)c1ccc(N2C(=O)/C(=C/c3ccccc3)c3ccccc3C2C(=O)NC(C)(C)C)cc1 (stereo not drawn)
0

Another: COc1cc(/C=C2/C(=O)N(c3ccc(C)cc3)C(C(=O)NC3CCCCC3)c3ccccc32)ccc1O (stereo not drawn)
72.7

Another: COc1ccc2c(c1)/C(=C\c1ccc(O)c(OC)c1)C(=O)N(c1ccc(C(C)C)cc1)C2C(=O)NC(C)(C)C (stereo not drawn)
69.2

Another: COc1cc(/C=C2/C(=O)N(c3ccccc3)C(C(=O)NC3CCCCC3)c3ccccc32)ccc1O (stereo not drawn)
66.8
